Some compounds, each annotated with its measured TGI.
tested on: UACC-62 melanoma; experiment: NCI tumour cell line growth inhibition, 48 h

Worked examples, 5 compounds total:
CC(C)(C)c1ccc(-c2nc3ccccc3c(=O)o2)cc1 | > 100 µM
CC(C)=CCC/C(C)=C/CC/C(C)=C/CC/C=C(\C)CC/C=C(\C)CCC1SC1(C)C (stereo unspecified) | > 100 µM
COc1ccc(NC(=O)CC/C(CC(=O)c2ccccc2Cl)=N\Nc2nnc(C)n2N)cc1 | > 100 µM
CCCCCCNC(=O)c1cc(C#Cc2cc(OC)ccc2OC)ccc1OC | > 100 µM
C#CC[C@@H]1C[C@]2(C)[C@H]3CC[C@@H]4[C@H]5[C@H](C(=C)C)CC[C@]5(C(=O)O)CC[C@@]4(C)[C@]3(C)CC[C@H]2C(C)(C)[C@H]1O | 9.84 µM

Ask: Reported TGI for UACC-62 melanoma, given COc1ccc(-c2cc(-c3ccc(O)cc3)nc3nc(=S)[nH]c(N)c23)cc1 ?
Result: 30.3 µM

Ask: Reported TGI for UACC-62 melanoma, given CC/C(Cl)=N\OC(=O)Nc1ccccc1OC(F)(F)F ?
Result: 37.1 µM

Ask: Reported TGI for UACC-62 melanoma, given COc1ccc(C(=O)/C=C2\c3ccccc3C(=O)N2C)cc1 ?
Result: > 100 µM

Ask: Reported TGI for UACC-62 melanoma, given CC1C(=O)C(C)C(c2cccs2)N(N=O)C1c1cccs1 (stereo unspecified) ?
Result: > 100 µM

Ask: Reported TGI for UACC-62 melanoma, given CSC(=S)N/N=C/c1ccccc1 ?
Result: > 100 µM

Ask: Reported TGI for UACC-62 melanoma, given CCOC(=O)c1c[nH]c2c(OCc3ccccc3)c3ccccc3c(O)c2c1=O ?
Result: 15.8 µM

Ask: Reported TGI for UACC-62 melanoma, given Cn1c(=O)nc2n(-c3ccc(F)cc3)c3ccccc3nc-2c1=O ?
Result: 25 µM
